system tested: T1, recombinant human PD-1 dimer expressed with a C-terminal mouse IgG2a Fc tag (hPD-1-mFc) (human)
T1 construct: also called human PD-1-mFc
T1 sequence (chain, as listed by the source limits assumed): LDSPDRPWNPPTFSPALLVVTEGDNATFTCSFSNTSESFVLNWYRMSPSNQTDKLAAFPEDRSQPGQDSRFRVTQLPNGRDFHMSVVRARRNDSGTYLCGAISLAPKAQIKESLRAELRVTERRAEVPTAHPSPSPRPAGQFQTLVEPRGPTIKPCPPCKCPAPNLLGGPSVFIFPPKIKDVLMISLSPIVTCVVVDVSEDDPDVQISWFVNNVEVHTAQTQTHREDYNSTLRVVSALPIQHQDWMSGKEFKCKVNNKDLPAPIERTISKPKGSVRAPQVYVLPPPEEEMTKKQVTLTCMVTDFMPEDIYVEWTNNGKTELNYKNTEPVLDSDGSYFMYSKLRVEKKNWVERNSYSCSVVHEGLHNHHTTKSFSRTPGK
assay notes: BLI Octet Red 96, captured hPD-L1-hFc
readout type: binding of the mixture of 100 nM hPD-1-mFc and 500 nM antibody (nm)
Answers are plain numbers, in nm.

Worked examples, 2 binders total:
Request the reported binding of the mixture of 100 nM hPD-1-mFc and 500 nM antibody associated with H2aM7798N (antibody, mouse IgG2a, V domains shown, mouse IgG2a Fc; human variable regions; also called H2M7798N) VH: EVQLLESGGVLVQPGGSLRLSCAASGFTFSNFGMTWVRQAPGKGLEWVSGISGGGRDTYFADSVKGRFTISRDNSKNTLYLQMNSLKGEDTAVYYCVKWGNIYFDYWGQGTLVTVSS VL: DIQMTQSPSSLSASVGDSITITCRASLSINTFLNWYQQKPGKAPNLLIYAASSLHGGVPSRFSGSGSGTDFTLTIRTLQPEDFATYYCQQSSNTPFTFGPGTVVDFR 0.01

And H1M7799N (antibody, mouse IgG1, V domains shown, mouse IgG1 Fc; human variable regions) VH: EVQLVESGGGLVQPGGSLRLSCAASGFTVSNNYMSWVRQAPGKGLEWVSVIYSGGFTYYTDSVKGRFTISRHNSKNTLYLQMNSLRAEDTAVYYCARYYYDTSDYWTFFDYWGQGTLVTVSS VL: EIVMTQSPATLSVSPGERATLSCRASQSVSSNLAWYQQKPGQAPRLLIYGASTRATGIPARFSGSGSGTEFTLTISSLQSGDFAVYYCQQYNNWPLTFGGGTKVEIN ? 0

API: the following record is the query input.
Any idea what binding of the mixture of 100 nM hPD-1-mFc and 500 nM antibody was measured for H2aM7780N (antibody, mouse IgG2a, V domains shown, mouse IgG2a Fc; human variable regions; also called H2M7780N) VH: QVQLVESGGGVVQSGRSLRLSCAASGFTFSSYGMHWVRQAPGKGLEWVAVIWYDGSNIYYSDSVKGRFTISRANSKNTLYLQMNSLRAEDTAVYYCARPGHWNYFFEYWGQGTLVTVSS VL: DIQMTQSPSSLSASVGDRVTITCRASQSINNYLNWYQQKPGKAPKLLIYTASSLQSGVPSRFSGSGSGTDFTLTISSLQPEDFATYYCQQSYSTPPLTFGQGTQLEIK ? -0.01

From: patent US20240382677A1
